target: IL-17A/A (Homo sapiens, UniProt Q16552); construct: purchased Genscript Z03228; assay: HEK-Blue IL-17A/A inhibition assay (SEAP reporter); assay type: cell-based; details: HEK-Blue cells (HEK 293 expressing IL-17RA, IL-17RC, Act1); IL-17A/A stimulation; 20 hours; SEAP read at A630; 4-parameter fit
pIC50: −log10 of the molar value.
endpoint-label: pIC50

| compound | system-name | pIC50 |
| --- | --- | --- |
| CC(C)n1nccc1C(=O)N[C@H](C(=O)Nc1ccc([C@H](C)C(=O)N(C)CC(F)(F)F)cc1F)C1CCC(F)(F)CC1 [Compound 51] | IL-17A/A (Homo sapiens, UniProt Q16552) | 6.00 to 7.00 |
| Cc1cc(NC(=O)[C@@H](NC(=O)c2ccnn2C(C)C)C(C2CC2)C2CC2)c(F)cc1C(C)C(=O)N1CC(O)CC1C(F)(F)F (single isomer, unassigned) [Compound 172] | IL-17A/A (Homo sapiens, UniProt Q16552) | 6.00 to 7.00 |
| CCc1cc(NC(=O)[C@@H](NC(=O)c2ccnn2C(C)C)C(C2CC2)C2CC2)c(F)cc1[C@@H](C)C(=O)NCC(F)(F)F [Compound 112] | IL-17A/A (Homo sapiens, UniProt Q16552) | 6.00 to 7.00 |
| CC(C(=O)NCC(F)(F)F)c1cc(F)c(NC(=O)[C@@H](NC(=O)c2ccnn2C(C)C)C(C2CC2)C2CC2)cc1C#N (single isomer, unassigned) [Compound 115] | IL-17A/A (Homo sapiens, UniProt Q16552) | 6.00 to 7.00 |
| CC(C)n1nccc1C(=O)N[C@H](C(=O)Nc1ccc([C@H](C)C(=O)N2C[C@H](F)[C@@H](F)C2)cc1F)C(C1CC1)C1CC1 [Compound 38] | IL-17A/A (Homo sapiens, UniProt Q16552) | 6.00 to 7.00 |
| CC(C)n1nccc1C(=O)N[C@H](C(=O)Nc1ccc([C@H](C)C(=O)N2C(C(N)=O)CCC2C(F)(F)F)cc1F)C(C1CC1)C1CC1 (single isomer, unassigned) [Compound 146] | IL-17A/A (Homo sapiens, UniProt Q16552) | < 6.00 |
| CC[C@@H](c1ccc(Cl)cc1)[C@H](NC(=O)c1ccnn1CC)C(=O)Nc1ccc([C@H](C)C(=O)N(C)CC(F)(F)F)cc1F [Compound 72] | IL-17A/A (Homo sapiens, UniProt Q16552) | 6.00 to 7.00 |
| C[C@H](C(=O)NCC(F)(F)F)c1ccc(NC(=O)[C@@H](NC(=O)c2ccnn2CCN2CCOCC2)C(C2CC2)C2CC2)c(F)c1 [Compound 89] | IL-17A/A (Homo sapiens, UniProt Q16552) | 6.00 to 7.00 |

Tell me pIC50 reported for Cc1cc(NC(=O)[C@@H](NC(=O)c2ccnn2C)C(C2CC2)C2CC2)c(F)cc1C(C)C(=O)NCC(F)(F)F (stereo partly drawn) [Compound 222] < 6.00

Tell me pIC50 reported for CC(C)n1nccc1C(=O)N[C@H](C(=O)Nc1ccc([C@H](C)C(=O)NC2(C(F)(F)F)CNC2)cc1F)C(C1CC1)C1CC1 [Compound 52] < 6.00

Tell me pIC50 reported for CCn1nccc1C(=O)N[C@H](C(=O)Nc1ccc([C@H](C)C(=O)N(C)CC(F)(F)F)cc1F)C1CCCCCC1 (single isomer, unassigned) [Compound 4] > 7.00

Tell me pIC50 reported for CC(C(=O)NCC(F)(F)F)c1cc(F)c(NC(=O)[C@@H](NC(=O)c2ccnn2C(C)C)C(C2CC2)C2CC2)cc1C#N (single isomer, unassigned) [Compound 118] < 6.00

----------
molecular target: IL-17A/A (Homo sapiens); experiment: HEK-Blue IL-17A/A inhibition assay (SEAP reporter); conditions: HEK-Blue cells (HEK 293 expressing IL-17RA, IL-17RC, Act1); IL-17A/A stimulation; 20 hours; SEAP read at A630; 4-parameter fit
pIC50: −log10 of the molar value.
endpoint-label: pIC50

Past entries and their recorded results:
| compound | pIC50 |
| --- | --- |
| CCC(C1CCC1)[C@H](NC(=O)c1ccnn1CC)C(=O)Nc1ccc([C@H](C)C(=O)NCC(F)(F)F)cc1F (single isomer, unassigned) [Compound 87] | 6.00 to 7.00 |
| CCn1nccc1C(=O)N[C@H](C(=O)Nc1ccc([C@H](C)C(=O)N(CC2CC2)CC(F)(F)F)cc1F)C1CCCCCC1 | > 7.00 |

Consider the record given below.
Tell me pIC50 reported for CC(C(=O)NCC(F)(F)F)c1cc(F)c(NC(=O)[C@@H](NC(=O)c2ccnn2C(C)C)C(C2CC2)C2CC2)cc1N(C)C (stereo partly drawn) [Compound 234] < 6.00

----------
Biological target: IL-17A/A (Homo sapiens, UniProt Q16552)
Sequence (Q16552 24-155): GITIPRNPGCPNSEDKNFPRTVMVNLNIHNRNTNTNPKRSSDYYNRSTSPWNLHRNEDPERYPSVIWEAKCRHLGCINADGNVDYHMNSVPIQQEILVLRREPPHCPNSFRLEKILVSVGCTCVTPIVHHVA
Assay: HEK-Blue IL-17A/A inhibition assay (SEAP reporter)
Conditions: HEK-Blue cells (HEK 293 expressing IL-17RA, IL-17RC, Act1); IL-17A/A stimulation; 20 hours; SEAP read at A630; 4-parameter fit
The following molecules are shown together with reported IC50 values.

| molecule | IC50 |
| --- | --- |
| CC(C)n1nccc1C(=O)N[C@H](C(=O)Nc1ccc([C@H](C)C(=O)N2C[C@@H](F)C[C@H]2C(F)(F)F)cc1F)C(C1CC1)C1CC1 [Compound 60] | < 100 nM |
| Cc1cc(NC(=O)[C@@H](NC(=O)c2ccnn2C(C)C)C(C2CC2)C2CC2)c(F)cc1C(C)C(=O)N1CC(O)CC1C(F)(F)F (single isomer, unassigned) [Compound 173] | < 100 nM |
| CCn1nccc1C(=O)N[C@H](C(=O)Nc1cc(OC(F)(F)F)c(C(C)C(=O)NCC(F)(F)F)cc1F)C(C1CC1)C1CC1 (stereo partly drawn) [Compound 259] | < 100 nM |
| CCn1nccc1C(=O)N[C@H](C(=O)Nc1ccc([C@H](C)C(=O)N(C)CC(F)(F)F)cc1F)C(C1CC1)C1CC1 [Compound 68] | < 100 nM |
| CC(CN1CCOCC1)n1nccc1C(=O)N[C@H](C(=O)Nc1ccc([C@H](C)C(=O)NCC(F)(F)F)cc1F)C(C1CC1)C1CC1 (single isomer, unassigned) [Compound 92] | 100 to 1000 nM |

Tell me IC50 reported for CCc1nonc1C(=O)N[C@H](C(=O)Nc1cc(C)c(C(C)C(=O)N(C)CC(F)(F)F)cc1F)C1CCC(F)(F)CC1 (stereo partly drawn) [Compound 225] 100 to 1000 nM

Tell me IC50 reported for Cc1cc(NC(=O)[C@@H](NC(=O)c2nonc2C)C(C2CC2)C2CC2)c(F)cc1C(C)C(=O)N(C)CC(F)(F)F (stereo partly drawn) [Compound 211] < 100 nM

Tell me IC50 reported for CC(C)n1nccc1C(=O)N[C@H](C(=O)Nc1ccc([C@H](C)C(=O)N(CC(F)(F)F)C2CCOC2)cc1F)C(C1CC1)C1CC1 (stereo partly drawn) [Compound 153] 100 to 1000 nM

Tell me IC50 reported for CCC(C(=O)NCC(F)(F)F)c1ccc(NC(=O)[C@@H](NC(=O)c2ccnn2C(C)C)C(C2CC2)C2CC2)c(F)c1 (single isomer, unassigned) [Compound 150] > 1000 nM

Tell me IC50 reported for CC(C)n1nccc1C(=O)N[C@H](C(=O)Nc1ccc(C(CN2CCOCC2)C(=O)NCC(F)(F)F)cc1F)C(C1CC1)C1CC1 (single isomer, unassigned) [Compound 130] > 1000 nM

Tell me IC50 reported for Cc1cc(NC(=O)[C@@H](NC(=O)c2ccnn2C(C)C)C(C2CC2)C2CC2)c(F)cc1C(C)C(=O)NC(C(N)=O)C(F)(F)F (stereo partly drawn) [Compound 178] 100 to 1000 nM

Tell me IC50 reported for CC(C)n1nccc1C(=O)N[C@H](C(=O)Nc1ccc([C@H](C)C(=O)NC(c2ccccn2)C(F)(F)F)cc1F)C(C1CC1)C1CC1 (stereo partly drawn) [Compound 41] 100 to 1000 nM

----------
target: IL-17A/A (Homo sapiens); assay: HEK-Blue IL-17A/A inhibition assay (SEAP reporter); conditions: HEK-Blue cells (HEK 293 expressing IL-17RA, IL-17RC, Act1); IL-17A/A stimulation; 20 hours; SEAP read at A630; 4-parameter fit
The following compounds are shown together with reported IC50 values.

Past entries and their recorded results:
| compound | system-name | IC50 |
| --- | --- | --- |
| COC(=O)Nc1cc(NC(=O)[C@@H](NC(=O)c2ccnn2C(C)C)C(C2CC2)C2CC2)c(F)cc1C(C)C(=O)NCC(F)(F)F (stereo partly drawn) [Compound 249] | IL-17A/A (Homo sapiens) | 0.1 to 1 µM |
| CCn1nccc1C(=O)N[C@H](C(=O)Nc1cc(C)c(C(C)C(=O)NCC(F)(F)F)cc1F)C1CCC(F)(F)CC1 (stereo partly drawn) | IL-17A/A (Homo sapiens) | > 1 µM |
| CC(C(=O)NCC(F)(F)F)c1cc(F)c(NC(=O)[C@@H](NC(=O)c2ccnn2C(C)C)C(C2CC2)C2CC2)cc1CS(C)(=N)=O (stereo partly drawn) | IL-17A/A (Homo sapiens) | 0.1 to 1 µM |
| CC(C(=O)NCC(F)(F)F)c1cc(F)c(NC(=O)[C@@H](NC(=O)c2ccnn2C(C)C)C(C2CC2)C2CC2)cc1NC(F)(F)F (single isomer, unassigned) | IL-17A/A (Homo sapiens) | 0.1 to 1 µM |
| COCC(C(=O)NCC(F)(F)F)c1ccc(NC(=O)[C@@H](NC(=O)c2ccnn2C(C)C)C(C2CC2)C2CC2)c(F)c1 (single isomer, unassigned) [Compound 104] | IL-17A/A (Homo sapiens) | > 1 µM |

Consider the record given below.
Tell me IC50 reported for CCn1nccc1C(=O)N[C@H](C(=O)Nc1cc(OC)c(C(C)C(=O)N(C)CC(F)(F)F)cc1F)C(C1CC1)C1CC1 (stereo partly drawn) < 0.1 µM
